Tested on: DNA aptamer or structured DNA CTTACGACTAGGTGTGGGTCGGCGCTAGGGGCAGGGTAGTCGTAAG
conditions: 10 mM Tris-HCl, pH 7.4
value type: Kd (nM)
# value in nM; strip the unit string

Ask: For the compound COC(=O)[C@@H]1C2CCC(C[C@@H]1OC(=O)c1ccccc1)N2C (stereo partly specified) , report Kd.
Result: 315

----------
Test system: DNA aptamer or structured DNA CTTACGACGTTGGGCTTATTAGGGGCTGGAGTGGGTGAGTCGTAAG
conditions: 10 mM Tris-HCl, pH 7.4
value type: Kd (µM)
# value in µM; strip the unit string

Ask: For the compound COC(=O)[C@@H]1C2CCC(C[C@@H]1OC(=O)c1ccccc1)N2C (stereo partly specified) , report Kd.
Result: 0.617

----------
Test system: DNA aptamer or structured DNA TTCAAATCTATGGTGCAGTGCGCAGGGACGGAGGTAAAACATGAGTTTTAGTCTAGATTTGAA
conditions: 10 mM Tris-HCl, pH 7.4
value type: binding call; further: call rule not given here

Examples from the recorded data:
# compound, binding call
rows = [
    ("CN(C)CCOC(c1ccccc1)c1ccccc1", "no binding"),
    ("Cc1nnc2n1-c1ccc(Cl)cc1C(c1ccccc1)=NC2", "no binding"),
    ("CCC(=O)C(CC(C)N(C)C)(c1ccccc1)c1ccccc1 (centres undefined)", "no binding"),
    ("CN[C@@H](C)[C@@H](O)c1ccccc1", "no binding"),
    ("Cn1c(=O)c2c(ncn2C)n(C)c1=O", "no binding"),
]

Ask: For the compound CC(N)Cc1ccccc1 (centres undefined) , report binding call.
Result: binds

Ask: For the compound C=C[C@H]1CN2CC[C@@H]1C[C@H]2[C@H](O)c1ccnc2ccc(OC)cc12 , report binding call.
Result: binds

Ask: For the compound NCCc1ccc(O)c(O)c1 , report binding call.
Result: binds

Ask: For the compound CCN(CC)CC(=O)Nc1c(C)cccc1C , report binding call.
Result: no binding

Ask: For the compound CC(NC(C)(C)C)C(=O)c1cccc(Cl)c1 (centres undefined) , report binding call.
Result: binds

Ask: For the compound CNC(C)Cc1ccc2c(c1)OCO2 (centres undefined) , report binding call.
Result: binds

Ask: For the compound NCCc1ccc(O)cc1 , report binding call.
Result: no binding

Ask: For the compound CCCC(C(=O)c1ccc2c(c1)OCO2)N1CCCC1 (centres undefined) , report binding call.
Result: no binding

Ask: For the compound CNC(C)Cc1ccc(O)cc1 (centres undefined) , report binding call.
Result: binds

----------
System: DNA aptamer or structured DNA CTTACGACACAGGGTGTGTTGTGCTCAGTGGTGTATGTGTCGTAAG
conditions: 10 mM Tris-HCl, pH 7.4
value type: binding call; further: call rule not given here

Examples from the recorded data:
# molecule, binding call
records = [
    ("C=C[C@H]1CN2CC[C@@H]1C[C@H]2[C@H](O)c1ccnc2ccc(OC)cc12", "binds"),
    ("CN1CC[C@]23c4c5ccc(O)c4O[C@H]2[C@@H](O)C=C[C@H]3[C@H]1C5", "no binding"),
    ("CN(C)CCOC(c1ccccc1)c1ccccc1", "no binding"),
    ("CN[C@@H](C)[C@@H](O)c1ccccc1", "no binding"),
]

Ask: For the molecule OCC1OC(OC2C(CO)OC(O)C(O)C2O)C(O)C(O)C1O (centres undefined) , report binding call.
Result: no binding

Ask: For the molecule CCOC(=O)c1ccc(N)cc1 , report binding call.
Result: binds

Ask: For the molecule CN[C@@H](C)Cc1ccccc1 , report binding call.
Result: binds

Ask: For the molecule CC(=O)Oc1ccc2c3c1O[C@H]1[C@@H](OC(C)=O)C=C[C@H]4[C@@H](C2)N(C)CC[C@@]341 , report binding call.
Result: binds

Ask: For the molecule CC(=O)Nc1ccc(O)cc1 , report binding call.
Result: no binding

Ask: For the molecule CN(C)CCCN1c2ccccc2Sc2ccc(Cl)cc21 , report binding call.
Result: no binding

----------
Test system: DNA aptamer or structured DNA GGGACGACGGTACCCGCCGGTGCAGGATCTGGGGTGGTGTCGTCCC
conditions: 10 mM Tris-HCl, pH 7.4
value type: binding call; further: call rule not given here

Examples from the recorded data:
# compound, subject of test, binding call
rows = [
    ("N[C@@H](Cc1ccc(O)cc1)C(=O)O", "DNA aptamer or structured DNA GGGACGACGGTACCCGCCGGTGCAGGATCTGGGGTGGTGTCGTCCC", "binds"),
    ("COc1cc(CC(=O)O)ccc1O", "DNA aptamer or structured DNA GGGACGACGGTACCCGCCGGTGCAGGATCTGGGGTGGTGTCGTCCC", "binds"),
    ("Cc1nnc2n1-c1ccc(Cl)cc1C(c1ccccc1)=NC2", "DNA aptamer or structured DNA GGGACGACGGTACCCGCCGGTGCAGGATCTGGGGTGGTGTCGTCCC", "binds"),
    ("C=C[C@H]1CN2CC[C@@H]1C[C@H]2[C@H](O)c1ccnc2ccc(OC)cc12", "DNA aptamer or structured DNA GGGACGACGGTACCCGCCGGTGCAGGATCTGGGGTGGTGTCGTCCC", "binds"),
    ("CN(C)CCOC(c1ccccc1)c1ccccc1", "DNA aptamer or structured DNA GGGACGACGGTACCCGCCGGTGCAGGATCTGGGGTGGTGTCGTCCC", "binds"),
    ("CN[C@@H](C)[C@@H](O)c1ccccc1", "DNA aptamer or structured DNA GGGACGACGGTACCCGCCGGTGCAGGATCTGGGGTGGTGTCGTCCC", "no binding"),
    ("NCCc1ccc(O)cc1", "DNA aptamer or structured DNA GGGACGACGGTACCCGCCGGTGCAGGATCTGGGGTGGTGTCGTCCC", "binds"),
    ("COC(=O)[C@@H]1C2CCC(C[C@@H]1OC(=O)c1ccccc1)N2C (stereo partly drawn)", "DNA aptamer or structured DNA GGGACGACGGTACCCGCCGGTGCAGGATCTGGGGTGGTGTCGTCCC", "no binding"),
    ("CNC(C)Cc1ccc2c(c1)OCO2 (stereo not drawn)", "DNA aptamer or structured DNA GGGACGACGGTACCCGCCGGTGCAGGATCTGGGGTGGTGTCGTCCC", "binds"),
    ("CNC(C)Cc1ccc(O)cc1 (stereo not drawn)", "DNA aptamer or structured DNA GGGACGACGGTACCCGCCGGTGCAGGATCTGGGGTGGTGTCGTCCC", "binds"),
]

Ask: For the compound NCCc1c[nH]c2ccc(O)cc12 , report binding call.
Result: no binding

Ask: For the compound CCN(CC)CCOC(=O)c1ccc(N)cc1 , report binding call.
Result: binds

Ask: For the compound CC(N)Cc1ccccc1 (stereo not drawn) , report binding call.
Result: binds

----------
Tested on: DNA aptamer or structured DNA CTTACGACACAGGGGGTGGCTAGGGTGCGCGGGAGCTGGTCGTAAG
conditions: 10 mM Tris-HCl, pH 7.4
value type: binding call; further: call rule not given here

Examples from the recorded data:
# compound, result
records = [
    ("Cn1c(=O)c2c(ncn2C)n(C)c1=O", "no binding"),
    ("CN1C2CCC1[C@@H](C(=O)O)[C@@H](OC(=O)c1ccccc1)C2 (stereo not given in full)", "binds"),
    ("CCN(CC)CCOC(=O)c1ccc(N)cc1", "binds"),
    ("CNC(C)C(=O)c1ccc(C)cc1 (stereo not given)", "no binding"),
]

Now consider a different compound.
Ask: For the compound COc1ccc2c3c1O[C@H]1C(=O)CC[C@@]4(O)[C@@H](C2)N(C)CC[C@]314 , report binding call.
Result: binds

----------
Test system: DNA aptamer or structured DNA CTTACGACTAGTCGGTGGGGGGTAGGCGGAGGGTTGTTGTCGTAAG
conditions: 10 mM Tris-HCl, pH 7.4
value type: pKd
Reminder that pKd is minus the log10 of a molar concentration.

Ask: For the molecule COC(=O)[C@@H]1C2CCC(C[C@@H]1OC(=O)c1ccccc1)N2C (stereo partly specified) , report pKd.
Result: 6.91

----------
System: DNA aptamer or structured DNA CTTACGACAGTAACGGTGGGTATATGGGATTTATGTTCGTCGTAAG
conditions: 10 mM Tris-HCl, pH 7.4
value type: Kd (nM)
# value in nM; strip the unit string

Ask: For the compound COC(=O)[C@@H]1C2CCC(C[C@@H]1OC(=O)c1ccccc1)N2C (stereo partly specified) , report Kd.
Result: 282

----------
System: DNA aptamer or structured DNA CTTACGACGGGTGCTGTTGGTTCTAGGGTTAGGATGGCGTCGTAAG
conditions: 10 mM Tris-HCl, pH 7.4
value type: Kd (nM)
# value in nM; strip the unit string

Ask: For the compound COC(=O)[C@@H]1C2CCC(C[C@@H]1OC(=O)c1ccccc1)N2C (stereo partly specified) , report Kd.
Result: 57
